System: SNU-C4 xenografted nude mice
Test: Biodistribution study in SNU-C4 xenografted nude mice after intravenous injection
Type: in vivo, mouse
Conditions: blood, 2 hr after intravenous injection
Description: Human colon cancer cell line SNU-C4 was cultured in RPMI1640 media containing 10% fetal bovine serum and harvested using trypsin. The cells were washed using 10 mL PBS and centrifugation at 3,000 rpm. […] The injected mice were sacrificed at 10 min, 30 min, 1 hr, and 2 hr, cancer, blood, muscle, heart, liver, spleen, stomach, intestine, and bone were obtained, weighed, and their radioactivities were counted. The results were expressed as percentages of injected dose per gram tissue (% ID/g).
Assay metric: % ID/g Blood (% ID/g)

compound="O=C([O-])CN1CCNCCN(CC(=O)[O-])CCN(CC(=O)[O-])CC1.[68Ga+3] [^68Ga-DO3A, reference compound]" system_name="SNU-C4 xenografted nude mice" recorded_value=0.22
compound="O=C([O-])CN1CCN(CC(=O)[O-])CCN(CC(=O)O)CCN(CC(=O)[O-])CC1.[68Ga+3] [^68Ga-DOTA, reference compound]" system_name="SNU-C4 xenografted nude mice" recorded_value=0.21
compound="NC(CNC(=O)CN1CCN(CC(=O)[O-])CCN(CC(=O)[O-])CC1)C(=O)[O-].[68Ga+3] (stereo not shown) [^68Ga-NOTA-ala]" system_name="SNU-C4 xenografted nude mice" recorded_value=0.15
compound="O=C([O-])CN1CCN(CC(=O)[O-])CCN(CC(=O)[O-])CC1.[68Ga+3] [^68Ga-NOTA, reference compound]" system_name="SNU-C4 xenografted nude mice" recorded_value=0.07

Origin of the recorded values: patent US20120029177A1
